FYI, the data here is from the supplement of paper PMC10307832.

Test system: NCI-H1793
protocol-details: relative viability (nuclei count vs DMSO), 5 days (fraction); higher = more cells survive
details: first compound 0.01 µM
List of relative viability values.
Could you respond with only the numeric value?

compound	reported-endpoint	reported
Cc1cn(-c2cc(NC(=O)c3ccc(C)c(Nc4nccc(-c5cccnc5)n4)c3)cc(C(F)(F)F)c2)cn1 [Nilotinib] + Cc1nc(NC(=O)N2CCC[C@H]2C(N)=O)sc1-c1ccnc(C(C)(C)C(F)(F)F)c1 [Alpelisib] (partner 2 µM)	relative viability	0.861

[Q] Any idea what relative viability was measured for Cc1cn(-c2cc(NC(=O)c3ccc(C)c(Nc4nccc(-c5cccnc5)n4)c3)cc(C(F)(F)F)c2)cn1 [Nilotinib] + O=C(c1cc(Cc2n[nH]c(=O)c3ccccc23)ccc1F)N1CCN(C(=O)C2CC2)CC1 [Olaparib] (partner 8 µM) ?
[A] 1.13

[Q] Proceed to Cc1cn(-c2cc(NC(=O)c3ccc(C)c(Nc4nccc(-c5cccnc5)n4)c3)cc(C(F)(F)F)c2)cn1 [Nilotinib] + CC(=O)Nc1cccc(-n2c(=O)n(C3CC3)c(=O)c3c(Nc4ccc(I)cc4F)n(C)c(=O)c(C)c32)c1 [Trametinib] (partner 0.02 µM)
[A] 0.328

[Q] // repeat for Cc1cn(-c2cc(NC(=O)c3ccc(C)c(Nc4nccc(-c5cccnc5)n4)c3)cc(C(F)(F)F)c2)cn1 [Nilotinib] + C[C@]1(O)C[C@@H](c2nc(-c3ccc4ccc(-c5ccccc5)nc4c3)c3c(N)nccn32)C1 [Linsitinib] (partner 1 µM) and report
[A] 1.41

[Q] Continue with Cc1cn(-c2cc(NC(=O)c3ccc(C)c(Nc4nccc(-c5cccnc5)n4)c3)cc(C(F)(F)F)c2)cn1 [Nilotinib] + CC1(C)CCC(c2ccc(Cl)cc2)=C(CN2CCN(c3ccc(C(=O)NS(=O)(=O)c4ccc(N[C@H](CCN5CCOCC5)CSc5ccccc5)c(S(=O)(=O)C(F)(F)F)c4)cc3)CC2)C1 [Navitoclax] (partner 0.5 µM)
[A] 0.587

[Q] Now the compound Cc1cn(-c2cc(NC(=O)c3ccc(C)c(Nc4nccc(-c5cccnc5)n4)c3)cc(C(F)(F)F)c2)cn1 [Nilotinib] + O=C(CCCCCCC(=O)Nc1ccccc1)NO [Vorinostat] (partner 1 µM)
[A] 0.688
